Test system: A549 NSCLC
ASSAY_TEXT: NCI tumour cell line growth inhibition, 48 h
MEASURED_ENDPOINT: TGI

Previously resolved entries follow.
Cc1ccccc1NC(=O)C1C(=O)N(c2ccccc2C)C(=O)/C1=N\NC(N)=S (stereo not drawn) | > 100 µM
c1ccc2[nH]c(-c3ccc(Nc4nc(N5CCCCC5)nc(N5CCOCC5)n4)cc3)nc2c1 | 13.2 µM
NC(=O)N/N=C1\CC2C3CC4C2C4C13 (stereo not drawn) | > 100 µM

Problem: Any idea what its TGI is? The molecule is `CC(=O)OCc1c(O)c2c(c(O)c1COC(C)=O)C(=O)C=CC2=O`
Solution: 35.9 µM

Problem: Then what about the molecule `C1=C\SS/C=C\SS/1` ?
Solution: > 100 µM

Problem: Then what about the molecule `S=c1cc(-c2ccc3c(c2)OCO3)s[nH]1` ?
Solution: > 100 µM

Problem: Then what about the molecule `Cc1ccc(NC(=O)c2cc(S(=O)(=O)N3C(=O)NC(=O)NS3(=O)=O)c(S)cc2Cl)cc1` ?
Solution: > 100 µM

* * *

Below: a set of entries, each annotated with reported TGI.
Test system: CAKI-1 renal
ASSAY_TEXT: NCI tumour cell line growth inhibition, 48 h

Previously resolved entries follow.
CCOC(=O)NC(=O)c1cn(CCN2CCN(C(=O)CCCCCCCCCCC(=O)N3CCN(CCn4cc(C(=O)NC(=O)OCC)c(=O)[nH]c4=O)CC3)CC2)c(=O)[nH]c1=O | > 100 µM
O=c1[nH]nc(Cc2ccccc2)n1/N=C/c1ccncc1 | > 100 µM
Cc1nc(C(N)=S)sc1C(=O)/C=C/c1c(O)ccc2ccccc12 | > 100 µM

Problem: Any idea what its TGI is? The compound is `CC(C)(C)OC(=O)NCCCCCCCn1c2c(c3ccccc3c1=O)C(=O)c1ccccc1-2`
Solution: 73 µM

Problem: Then what about the compound `CCOC(=O)c1cc2c3c(c(O)c(OC)c2s1)N(C(=O)c1cc2c4c(c(O)c(OC)c2s1)N(C(C)=O)CC4)CC3` ?
Solution: > 100 µM

Problem: Then what about the compound N/N=C1\C(=O)N(CCc2ccccc2)C(=O)C1C(=O)NCCc1ccccc1 (centres undefined) ?
Solution: > 100 µM

Problem: Then what about the compound `C[n+]1c(-c2ccc(/C=C/C=N\NC(=O)c3ccc(C(=O)N/N=C\C=C\c4ccc(-c5cn6ccccc6[n+]5C)cc4)cc3)cc2)cn2ccccc21` ?
Solution: > 60.4 µM

Problem: Then what about the compound `CCOC(=O)c1nnsc1NN` ?
Solution: > 100 µM

Problem: Then what about the compound `O=S(=O)(CCCl)c1ccc(Cl)cc1` ?
Solution: 13.2 µM

* * *

Test system: ACHN renal
ASSAY_TEXT: NCI tumour cell line growth inhibition, 48 h
Below: a set of entries, each annotated with reported TGI.

Previously resolved entries follow.
CSC(=S)N/N=C/c1nccc2ccccc12 | 12.2 µM
O=C(N[C@@H](C[Se][Se]C[C@H](NC(=O)c1ccc(Br)cc1F)C(=O)O)C(=O)O)c1ccc(Br)cc1F | > 100 µM
CCOC(=O)c1cn2c(n1)sc1cc(Cl)cc(Cl)c12 | > 100 µM

Problem: Request - read-out TGI | tested on ACHN renal | compound `CCOC(=O)c1nnsc1NN`
Solution: > 100 µM

Problem: Then what about the compound CC(=O)OC1C(COC(=O)c2ccccc2)OC(Nc2ncc(-c3ccc(Br)cc3)s2)C(OC(=O)c2ccccc2)C1OC(=O)c1ccccc1 (stereo not given) ?
Solution: > 100 µM

* * *

System: OVCAR-3 ovarian
ASSAY_TEXT: NCI tumour cell line growth inhibition, 48 h
Below: a set of entries, each annotated with reported TGI.
// units = µM; emit number, no label

Previously resolved entries follow.
CCOC(=O)C1SC(=Nc2ccc(Cl)cc2)N=C1C (stereo not given) | 47.8
C=C(CNCCc1ccc(O)cc1)[C@@H]1CC[C@]2(COC3CCCCO3)CC[C@]3(C)[C@H](CC[C@@H]4[C@@]5(C)CCC(NCCO)C(C)(C)[C@@H]5CC[C@]43C)[C@@H]12 (stereo not given in full) | 2.77
Cc1ccc(NC(=O)c2cc(S(=O)(=O)N3C(=O)NC(=O)NS3(=O)=O)c(S)cc2Cl)cc1 | 36.4
O=c1cc(-c2ccccc2)oc2c(-c3cc(Cl)cc4c(=O)cc(-c5ccccc5)oc34)cc(Cl)cc12 | 80.5
C=C1C(=O)O[C@H]2[C@H]1CC/C(C=Nc1c(N)cc(C(F)(F)F)cc1Br)=C\CC[C@@]1(C)O[C@@H]21 | 2.65
c1c2c(cc(-n3nnc4c3CCCCCC4)c1-n1nnc3c1CCCCCC3)CCCCCC2 | 64.8
CCOC(=O)/C=C(\C(=O)OCC)n1ccc(=O)n(Cc2cn(COCCOC(C)=O)nn2)c1=O | 48
COc1ccc(-c2cc(-c3ccccc3)[nH]c(=S)c2C#N)cc1 | 38.3
C[C@H]1CCCC(O)C(O)[C@@H]2C[C@H](O[Si](C)(C)C(C)(C)C)C[C@H]2[C@H](O[Si](C)(C)C(C)(C)C)C(O)C(O)C(=O)O1 (stereo not given in full) | 79.7
COC(=O)C1(C)Cc2cc(OC(C)=O)c(OC(C)=O)cc2N1 (stereo not given) | 23.8

Problem: Any idea what its TGI is? The compound is `CCCCCCCCCCCCCCCC[N+]1(C)CCOCC1`
Solution: 3.61

* * *

Tested on: SR leukemia
ASSAY_TEXT: NCI tumour cell line growth inhibition, 48 h
Below: a set of entries, each annotated with reported TGI.
// units = µM; emit number, no label

CN1/C(=C\C=C\C2=[N+](C)c3ccccc3C2(C)C)C(C)(C)c2ccccc21 | 4.44

Next compound, TGI to be filled in.
Problem: Any idea what its TGI is? The compound is `O=[N+]([O-])c1ccc(-c2ccc(-c3csc(Nc4ccccc4)n3)o2)cc1`
Solution: 4.76

* * *

Below: a set of entries, each annotated with reported TGI.
Tested on: SF-268 CNS
ASSAY_TEXT: NCI tumour cell line growth inhibition, 48 h

Problem: Any idea what its TGI is? The compound is `CC(NC(=O)N(C)C)NC(=O)N(C)C`
Solution: > 10 µM

Problem: Then what about the compound COC(=O)C1(C)Cc2cc(OC(C)=O)c(OC(C)=O)cc2N1 (stereo unspecified) ?
Solution: 52.6 µM

Problem: Then what about the compound Cc1cn(C2CC(N(C)C)C(CO)O2)c(=O)[nH]c1=O (stereo unspecified) ?
Solution: > 100 µM

Problem: Then what about the compound `O=C1CCCCN1CCCCC#Cc1cccc(C#Cc2cccnc2)c1` ?
Solution: > 100 µM

Problem: Then what about the compound `Cc1ccc(-c2nc3nc(-c4ccc(F)cc4)nc(N4CCCNCC4)c3o2)cc1` ?
Solution: 3.44 µM

Problem: Then what about the compound `COC(=O)C1=Nc2c(C)nn(-c3ccccc3)c2N=C(c2ccccc2)C1` ?
Solution: > 10 µM

* * *

Test system: LXFL 529 NSCLC
ASSAY_TEXT: NCI tumour cell line growth inhibition, 48 h
MEASURED_ENDPOINT: TGI

Previously resolved entries follow.
CC(=O)OCC1OC(N2C(=O)C(=O)c3ccccc32)C(OC(C)=O)C(OC(C)=O)C1OC(C)=O (stereo not given) | > 100 µM
CCC(=O)Nc1nc2c(ncn2C2OC(COC(=O)CC)C(OC(=O)CC)C2OC(=O)CC)c(=O)[nH]1 (stereo not given) | > 100 µM

Problem: Any idea what its TGI is? The molecule is `C=C(CN(C)C)C(=O)c1ccccc1[N+](=O)[O-]`
Solution: 30.3 µM

Problem: Then what about the molecule `COc1ccc2[nH]c3c(c2c1)[C@H](C)C[C@@H]1C(=O)N(c2ccccc2)C(=O)[C@H]31` ?
Solution: > 100 µM

Problem: Then what about the molecule `CSC(=NCCc1c[nH]c2ccccc12)NC#N` ?
Solution: > 100 µM

Problem: Then what about the molecule `CSc1nnc(COc2ccc(Cl)cc2)o1` ?
Solution: > 100 µM

Problem: Then what about the molecule `COc1ccc(CN2CCC/C=C/CC(Cl)(Cl)C2=O)cc1` ?
Solution: > 100 µM

Problem: Then what about the molecule `O=C(/C=C/c1ccccc1)c1ccc(NCc2nc3ccccc3[nH]2)cc1` ?
Solution: 10.8 µM

Problem: Then what about the molecule `CSC1=Nc2ccccc2N=C(c2ccc(Cl)cc2)C1` ?
Solution: > 100 µM

Problem: Then what about the molecule C[N+](C)(C)CC1CCCCC1O (stereo not given) ?
Solution: > 100 µM

Problem: Then what about the molecule `CC(C)(Oc1ccc(/C=C/C(=O)c2ccc(Cl)cc2)cc1)C(=O)Nc1c(Cl)cccc1Cl` ?
Solution: 53.9 µM

* * *

System: OVCAR-4 ovarian
ASSAY_TEXT: NCI tumour cell line growth inhibition, 48 h
Below: a set of entries, each annotated with reported TGI.

Previously resolved entries follow.
COc1ccc(COCC[C@H](C)OC2OC(CO[Si](C)(C)C(C)(C)C)C(OC(=O)CCCN=[N+]=[N-])C(OC(=O)CCCN=[N+]=[N-])C2OC(=O)CCCN=[N+]=[N-])cc1 (stereo partly specified) | > 100 µM
COc1c(O)c2c(=O)cc(OC)c3c4c(OC)cc(=O)c5c(O)c(OC)c6c(c(c1C(C(C)O)C6C(C)O)c23)c54 (stereo unspecified) | 4.96 µM
CC(=O)c1cnc2oc3ccc(O)cc3c2c1-c1ccccc1 | 36.6 µM
Cc1cc(I)cc(CN(C)CCCN2CCCC2)c1O | > 90.1 µM
CSC(=NCCc1c[nH]c2ccccc12)NC#N | > 100 µM
Cc1cnc2c(c1)C(=O)C1=C(C2=O)C2OC(=O)CC2OC1(C)C (stereo unspecified) | 0.359 µM

Problem: Any idea what its TGI is? The compound is `CN(C)C(=S)/N=c1\ssc(=S)n1Cc1ccncc1`
Solution: 95.2 µM

Problem: Then what about the compound `O=c1c2cc(Br)ccc2nc(CCl)n1-c1ccc(O)c([N+](=O)[O-])c1` ?
Solution: 33.4 µM

Problem: Then what about the compound `O=C(C(Cl)=C(N1CCOCC1)N1CCOCC1)C(Cl)Cl` ?
Solution: > 100 µM

Problem: Then what about the compound `C[C@]12CC[C@@H]3c4cc(I)c(O)cc4CC[C@H]3[C@@H]1CC[C@@H]2O` ?
Solution: 39.3 µM

Problem: Then what about the compound O=[N+]([O-])c1ccc2c(c1)C1=NN(c3ccccc3)C(c3ccccc3Br)C1CCC2 (stereo unspecified) ?
Solution: > 50 µM

Problem: Then what about the compound COc1cc2c(c(O)c1OC)C(=O)C(Cc1ccc(O)cc1)CO2 (stereo unspecified) ?
Solution: > 100 µM

Problem: Then what about the compound `C1=C\SS/C=C\SS/1` ?
Solution: > 100 µM

Problem: Then what about the compound `C=C1C(=O)O[C@H]2[C@H]1CC/C(C=Nc1c(N)cc(C(F)(F)F)cc1Br)=C\CC[C@@]1(C)O[C@@H]21` ?
Solution: 3.45 µM
